Data provenance: ChEMBL document CHEMBL1201862

Tested on: SN12C
experimentNotes: NCI tumour cell line growth inhibition, 48 h
Where a name gives a salt, the structure may show the parent alone. Active and inactive are the calls of the source. No stated cut-off is given here; in the data, active = GI50 up to about 1.1 µM and inactive = higher. Starred links: 1 amine or outer side, 2 acyl side, 3 side chain; linkers in the order of their positions; H or OH if unused. Where a SMILES comes first, the peptide text is derived from it. Non-standard residues stand in square brackets, D forms with d. Residues, ends and D or L forms follow the SMILES beside them. The star is where a group is joined. X4 = C[C@H](N[*:1])C(=O)C(C)(C)C(=O)[*:2]; Hmpa(2S,3S) = CC[C@H](C)[C@H](O)C(=O)O; NMeY = CN[C@@H](Cc1ccc(O)cc1)C(=O)O; NMeL = CN[C@@H](CC(C)C)C(=O)O; NMeV = CN[C@H](C(=O)O)C(C)C; OSu = O=C1CCC(=O)N1O*; OBn = c1ccc(CO*)cc1; Bn = c1ccc(C*)cc1; βAla = NCCC(=O)O
// allowed return values: active, inactive

| compound | categoryLabel |
| --- | --- |
| COc1cc2ccc1OCc1cccc(n1)COc1ccc(cc1OC)/C=N\c1ccc(cc1)-c1ccc(cc1)/N=C\2 | inactive |
| CCN(CC)CCn1c(C(C)(C)C)nc2ccccc21 | inactive |
| CCCCNC1=C(C(=O)OCC)/C(=N/NC(=O)c2ccccc2O)CO1 | inactive |
| Oc1ccc(Cl)cc1C1=Nn2c(COc3ccc4c(c3)CCCC4)nnc2SC1 | inactive |
| CC(=O)N(C)c1ccc(Nc2cc(C)nc3ccc4nc[nH]c4c23)cc1 [ACODAZOLE HYDROCHLORIDE] | inactive |

Challenge: Would you mind telling me which call this test gave `Cc1nc(-n2nc(-c3ccccc3)cc2-c2ccccc2)sc1C(=O)/C=C/c1ccccc1` ?
Response given: inactive

Challenge: Would you mind telling me which call this test gave CC[C@@H]1/C=C/C=C/C[C@H](C)[C@@H](O)[C@](C)(O)C(=O)[C@H](C)[C@@H](O)[C@H](C)C(=O)[C@H](C)[C@@H](O)[C@H](C)/C=C/C(=O)O[C@H]2[C@@H](C)[C@@H](CC1)O[C@]1(O[C@H](CC(C)O)[C@H](C)CC1=O)[C@@H]2C (some centres undefined) ?
Response given: inactive

Challenge: Would you mind telling me which call this test gave CC(C)CC(NC(=O)C(COc1ccc([N+](=O)[O-])cc1)Cc1ccccc1)C(=O)Nc1ccccc1 (centres undefined) ?
Response given: inactive

Challenge: Would you mind telling me which call this test gave O=C1OC(C(O)CO)C(C(O)CO)OC1=O (centres undefined) ?
Response given: inactive

Challenge: Would you mind telling me which call this test gave CC1(c2cccs2)CC(c2cccs2)=C(C#N)C(=C(C#N)C#N)N1 (centres undefined) ?
Response given: inactive

Challenge: Would you mind telling me which call this test gave `O=C(c1ccncc1)n1nc(-c2ccccc2)c(/N=N/c2ccc([N+](=O)[O-])cc2)c1-c1ccccc1` ?
Response given: inactive

Challenge: Would you mind telling me which call this test gave `Cc1cc2ncn(CC(=O)O)c2cc1C` ?
Response given: inactive

Challenge: Would you mind telling me which call this test gave `CC(C)=CCc1c(O)ccc2ccc(=O)oc12` ?
Response given: inactive

Challenge: Would you mind telling me which call this test gave CC(=O)C1C(=O)C(C(C)=O)C2C3C=CC(C3)C12 (centres undefined) ?
Response given: inactive

Challenge: Would you mind telling me which call this test gave CC[C@H](C)[C@@H]1OC(=O)CCNC(=O)[C@@H](C)NC(=O)C(C)(C)C(=O)[C@H](C)NC(=O)[C@H](Cc2ccc(OC)cc2)N(C)C(=O)[C@H](C(C)C)N(C)C(=O)CNC(=O)[C@H](CC(C)C)N(C)C(=O)CNC1=O (cyclo(G[NMeL]G[NMeV][NMeY](Me)[X4][dA][βAla][Hmpa(2S,3S)])) ?
Response given: active

Challenge: Would you mind telling me which call this test gave Cc1c2c(OCC3CCCCO3)nn(C)c(=O)c2c(C)n1-c1ccccc1 (centres undefined) ?
Response given: inactive

Challenge: Would you mind telling me which call this test gave `CCCCCCCCCCCCCCCCCCCCCCC(=O)N[C@H]1CCc2cc(OC)c(OC)c(OC)c2-c2ccc(SC)c(=O)cc21` ?
Response given: inactive

Challenge: Would you mind telling me which call this test gave `COc1cc2c(cc1OC)-c1cc3cc(OC)c(OC)cc3c(C)[n+]1CC2.O=C([O-])CS(=O)(=O)O` ?
Response given: inactive

Challenge: Would you mind telling me which call this test gave `CC(C)(C)C(=O)Nc1c(C=O)ccc2[nH]cnc12` ?
Response given: inactive

Challenge: Would you mind telling me which call this test gave `O=C1c2ccccc2-c2ccc(N(Cc3ccc(Br)cc3)Cc3ccc(Br)cc3)cc21` ?
Response given: inactive

Challenge: Would you mind telling me which call this test gave CC(C)CC(NC(=O)C(N)CCC(=O)OCc1ccccc1)C(=O)NC(COCc1ccccc1)C(=O)NC(Cc1ccccc1)C(=O)ON1C(=O)CCC1=O (centres undefined) (H-E(OBn)LS(Bn)F-OSu; configuration not given here) ?
Response given: inactive

Challenge: Would you mind telling me which call this test gave CC(=O)OCC1OC(N=[N+]=[N-])C(OC(C)=O)C(OC(C)=O)C1OC1OC(COC(C)=O)C(OC(C)=O)C(OC(C)=O)C1OC(C)=O (centres undefined) ?
Response given: inactive

Challenge: Would you mind telling me which call this test gave `O=C1N[C@@H]2c3c(Br)sc(Br)c3C(=O)[C@@H]2N1` ?
Response given: inactive
